Sourced from patent US20100298141A1

Tested on: giant foxtail
Assay: Test A pre-/postemergence greenhouse test
Format: in vivo, Setaria faberi
Conditions: Preemergence, 125 g ai/ha; 0 to 100 scale, 0 no effect, 100 complete control

{"columns": ["molecule", "Foxtail, Giant plant response rating"],
 "data": [
  ["CC(c1c(C(F)(F)F)nn(C)c1OC(F)F)S(=O)(=O)c1cccc[n+]1[O-] (stereo not shown) [Compound 5]", 90],
  ["Cc1cc[n+]([O-])c(S(=O)(=O)Cc2c(C(F)(F)C(F)(F)F)nn(C)c2OCC(F)(F)F)c1 [Compound 99]", 90],
  ["CC(c1c(C(F)(F)F)nn(C)c1Cl)S(=O)(=O)c1cccc[n+]1[O-] (stereo not shown) [Compound 10]", 100],
  ["Cn1nc(C(F)(F)C(F)(F)F)c(CS(=O)(=O)c2ccc(Cl)c[n+]2[O-])c1OCC(F)(F)F [Compound 100]", 60],
  ["Cn1nc(C(F)(F)F)c(C[S+]([O-])c2ccc(Br)c[n+]2[O-])c1OC(F)F (racemic) [Compound 16]", 100],
  ["Cn1nc(C(F)(F)F)c(C[S+]([O-])c2cc(Cl)cc[n+]2[O-])c1OC(F)F (stereo not shown) [Compound 57]", 30],
  ["CCn1nc(C(F)(F)F)c(C[S+]([O-])c2cc(C)cc[n+]2[O-])c1OCC(F)(F)F (racemic) [Compound 66]", 90]
]}

----------
Recorded Plant response rating, Ducksalad values for a group of compounds are listed next.
Test system: duck salad
Experiment: Test C flooded paddy test
Type: in vivo, Heteranthera limosa
Conditions: Flood, 62 g ai/ha; scale 0 to 100 (0 no effect, 100 complete control)

{"columns": ["compound", "Plant response rating, Ducksalad"],
 "data": [
  ["Cn1nc(C(F)(F)F)c(CS(=O)(=O)c2ccc(F)c[n+]2[O-])c1OC(F)F [Compound 107]", 0],
  ["Cc1cc[n+]([O-])c(S(=O)(=O)Cc2c(C(F)(F)F)nn(C)c2OCC(F)F)c1 [Compound 94]", 0],
  ["Cn1nc(C(F)(F)F)c(C[S+]([O-])c2ccc(Cl)c[n+]2[O-])c1OCC(F)(F)C(F)(F)F (stereo not shown) [Compound 89]", 40],
  ["CC(C)c1cc[n+]([O-])c(S(=O)(=O)Cc2c(C(F)(F)F)nn(C)c2OC(F)F)c1 [Compound 110]", 0]
]}

----------
Recorded Surinam Grass plant response rating values for a group of molecules are listed next.
Test system: Surinam grass
Test: Test C pre-/postemergence test
Type: in vivo, Brachiaria decumbens
Settings: preemergence, 250 g ai/ha; scale 0 (no effect) to 100 (complete control)

{"columns": ["molecule", "Surinam Grass plant response rating"],
 "data": [
  ["Cn1nc(OC(F)F)c(CS(=O)(=O)c2cccc[n+]2[O-])c1C(F)(F)F", 100],
  ["CC(c1c(C(F)(F)F)nn(CC(F)(F)F)c1Cl)[S+]([O-])c1cccc[n+]1[O-] (stereo not shown)", 100],
  ["Cn1nc(C(F)(F)F)c(C[S+]([O-])c2ccc(F)c[n+]2[O-])c1OCC(F)(F)F (stereo not shown)", 100],
  ["Cc1cc[n+]([O-])c(S(=O)(=O)Cc2c(C(F)(F)C(F)(F)F)nn(C)c2OCC(F)(F)F)c1", 95]
]}

----------
Tested on: Surinam grass
Experiment: Test C pre-/postemergence test
Assay type: in vivo, Brachiaria decumbens
Details: Postemergence, 62 g ai/ha
measured-metric: Plant response rating (0 to 100), Surinam Grass

{"columns": ["compound", "assay-target", "numeric-value"],
 "data": [
  ["CCn1nc(C(F)(F)F)c(CS(=O)(=O)c2cc(C)cc[n+]2[O-])c1OCC(F)(F)F", "Surinam grass", 0],
  ["Cn1nc(C(F)(F)F)c(C[S+]([O-])c2ccc(F)c[n+]2[O-])c1OCC(F)(F)F (stereo not shown)", "Surinam grass", 0],
  ["[O-][n+]1cc(Cl)ccc1[S+]([O-])Cc1c(C(F)(F)F)nn(CC(F)(F)F)c1Cl (stereo not shown)", "Surinam grass", 0],
  ["Cn1nc(C(F)(F)F)c(C[S+]([O-])c2cccc[n+]2[O-])c1OC(F)F (stereo not shown)", "Surinam grass", 0]
]}

----------
Recorded Plant response rating, Spanishneedles values for a group of compounds are listed next.
Tested on: spanishneedles
Test: Test F preemergence test
Assay type: in vivo, Bidens bipinnata
Conditions: Preemergence; 31 g ai/ha; scale 0 to 100

{"columns": ["compound", "Plant response rating, Spanishneedles"],
 "data": [
  ["Cn1nc(C(F)(F)F)c(CS(=O)(=O)c2cccc[n+]2[O-])c1OCC(F)(F)F", 0],
  ["Cc1cc[n+]([O-])c(S(=O)(=O)Cc2c(C(F)(F)F)nn(C)c2OCC(F)(F)F)c1", 100],
  ["Cn1nc(C(F)(F)F)c(C[S+]([O-])c2ccc(F)c[n+]2[O-])c1OC(F)F (stereo not shown)", 50],
  ["Cn1nc(C(F)(F)F)c(C[S+]([O-])c2ccc(Cl)c[n+]2[O-])c1OCC(F)F (stereo not shown)", 50]
]}

----------
Recorded Plant response rating, Velvetleaf values for a group of molecules are listed next.
Tested on: velvetleaf
Experiment: Test A pre-/postemergence greenhouse test
Assay type: in vivo, Abutilon theophrasti
Conditions: Preemergence, 500 g ai/ha; 0 to 100 scale where 0 is no effect and 100 is complete control
measured-metric: Plant response rating, Velvetleaf

{"columns": ["molecule", "measured-metric", "result"],
 "data": [
  ["Cc1cc[n+]([O-])c([S+]([O-])Cc2c(C(F)(F)F)nn(C)c2Cl)c1 (racemic)", "Plant response rating, Velvetleaf", 60],
  ["Cn1nc(C(F)(F)F)c(C[S+]([O-])c2ccc(F)c[n+]2[O-])c1OCC(F)(F)F (stereo not shown)", "Plant response rating, Velvetleaf", 100],
  ["CC(c1c(C(F)(F)F)nn(C)c1Cl)S(=O)(=O)c1ccc(Cl)c[n+]1[O-] (racemic)", "Plant response rating, Velvetleaf", 50],
  ["Cn1nc(C(F)(F)F)c(C[S+]([O-])c2cccc[n+]2[O-])c1Cl (stereo not shown)", "Plant response rating, Velvetleaf", 80],
  ["Cc1cc[n+]([O-])c(S(=O)(=O)Cc2c(C(F)(F)F)nn(CC(F)(F)F)c2Cl)c1", "Plant response rating, Velvetleaf", 40],
  ["Cn1nc(C(F)(F)F)c(C[S+]([O-])c2cc(C(C)(C)C)cc[n+]2[O-])c1OC(F)F (racemic)", "Plant response rating, Velvetleaf", 100],
  ["Cn1nc(C(F)(F)F)c(C[S+]([O-])c2cc(Br)cc[n+]2[O-])c1Cl (racemic)", "Plant response rating, Velvetleaf", 90]
]}

----------
Test system: Italian ryegrass
Test: Test F preemergence test
Format: in vivo, Lolium multiflorum
Conditions: Preemergence; 16 g ai/ha; scale 0 to 100
From the text: Seeds of plant species selected from bermudagrass (Cynodon dactylon), Surinam grass (Brachiaria decumbens), large crabgrass (Digitaria sanguinalis), green foxtail (Setaria viridis), goosegrass (Eleusine indica), johnsongrass (Sorghum halepense), kochia (Kochia scoparia), pitted morningglory (Ipomoea lacunosa), purple nutsedge (Cyperus rotundus), common ragweed (Ambrosia elation), mustard (Brassica nigra), guineagrass (Panicum maximum), […] […]

{"columns": ["compound", "Plant response rating, Ryegrass, Italian"],
 "data": [
  ["Cc1cc[n+]([O-])c(S(=O)(=O)Cc2c(C(F)(F)F)nn(C)c2OC(F)F)c1 [Compound 2]", 0],
  ["Cc1cc[n+]([O-])c([S+]([O-])Cc2c(C(F)(F)F)nn(C)c2OCC(F)(F)F)c1 (racemic) [Compound 30]", 60],
  ["Cc1cc[n+]([O-])c(S(=O)(=O)C(Cl)c2c(C(F)(F)F)nn(C)c2Cl)c1 (racemic) [Compound 22]", 0],
  ["Cn1nc(C(F)(F)F)c(CS(=O)(=O)c2cccc[n+]2[O-])c1OCC(F)(F)F [Compound 29]", 65]
]}

----------
Recorded Kochia plant response rating values for a group of molecules are listed next.
System: kochia
Test: Test C pre-/postemergence test
Format: in vivo, Kochia scoparia
Details: 62 g ai/ha, Preemergence; scale 0 to 100

{"columns": ["molecule", "Kochia plant response rating"],
 "data": [
  ["Cc1cc[n+]([O-])c(S(=O)(=O)Cc2c(C(F)(F)F)nn(C)c2OCC(F)(F)F)c1", 100],
  ["Cc1cc[n+]([O-])c(S(=O)(=O)Cc2c(C(F)(F)F)nn(C)c2OCC(F)F)c1", 100],
  ["C#CCOc1c(C[S+]([O-])c2cccc[n+]2[O-])c(C(F)(F)F)nn1C (stereo not shown)", 100],
  ["Cc1cc[n+]([O-])c(S(=O)(=O)Cc2c(C(F)(F)F)nn(C)c2OC(C)C(F)(F)F)c1 (stereo not shown)", 70],
  ["CC(c1c(C(F)(F)F)nn(CC(F)(F)F)c1Cl)[S+]([O-])c1cccc[n+]1[O-] (stereo not shown)", 50],
  ["Cn1nc(C(F)(F)C(F)(F)F)c(C[S+]([O-])c2ccc(Cl)c[n+]2[O-])c1OCC(F)(F)F (stereo not shown)", 100],
  ["CCc1cc[n+]([O-])c([S+]([O-])Cc2c(C(F)(F)F)nn(C)c2OCC(F)(F)F)c1 (stereo not shown)", 70],
  ["CCn1nc(C(F)(F)F)c(CS(=O)(=O)c2cccc[n+]2[O-])c1OCC(F)(F)F", 100],
  ["CCc1cc[n+]([O-])c(S(=O)(=O)Cc2c(C(F)(F)F)nn(C)c2OCC(F)(F)F)c1", 100],
  ["CCc1cc[n+]([O-])c([S+]([O-])Cc2c(C(F)(F)F)nn(C)c2OC(F)F)c1 (stereo not shown)", 30],
  ["Cn1nc(C(F)(F)F)c(C[S+]([O-])c2ccc(Cl)c[n+]2[O-])c1Cl (racemic)", 100],
  ["Cn1nc(C(F)(F)F)c(CS(=O)(=O)c2ccc(Cl)c[n+]2[O-])c1OCC(F)(F)F", 100],
  ["Cn1nc(C(F)(F)F)c(CS(=O)(=O)c2cccc[n+]2[O-])c1OCC(F)F", 100]
]}
